Listing of entries alongside the reported diameter of the S. mutans inhibition zone, 1 mM antibacterial substance alone.
Tested on: S. mutans (ATCC 25175)
METHOD: Agar diffusion test (paper disc), antibacterial substance alone
Assay type: cell-based, Streptococcus mutans
CONDITION_LABEL: 5 μL of 1 mM substance on 6 mm paper disc, 24 h; positive control 10 μL/ml ampicillin
Supply the numeric figure in mm, leaving out any unit text.

Example entries and their recorded answers appear below.
> print(dat)
                                   molecule  number
1  C=C[C@@](C)(/C=C/c1ccc(O)cc1)CCC=C(C)C [No. 2, Bakuchiol]     8.9
2  CC(C)=CCC[C@@H](C)c1ccc(C)c(O)c1 [No. 1-2, xanthorrhizol]    10.3

Let us move to another entry and its diameter of the S. mutans inhibition zone, 1 mM antibacterial substance alone.
Using the record for CC1(C)C=Cc2cc(C(=O)/C=C/c3ccc(O)cc3)c(O)cc2O1 [No. 5, Bavachromene] , state its measured diameter of the S. mutans inhibition zone, 1 mM antibacterial substance alone.
8.75

----------
System: S. mutans
METHOD: Formation of Semi-inhibition zone by fluoride varnish mixed with antibacterial substance (agar diffusion)
Format: cell-based, Streptococcus mutans
CONDITION_LABEL: Table 4; substance mixed 1:1 with fluoride varnish; positive control = ampicillin alone
Reported Semi-inhibition zone, Fluoride varnish + 10 mM substance is given for each of the following compounds.

These recorded examples may help you get a feel for the data.
> print(dat)
                                   compound  subject.of.test     result
1  CC1(C)S[C@@H]2[C@H](NC(=O)[C@H](N)c3ccccc3)C(=O)N2[C@H]1C(=O)O [Positive control group, ampicillin, reference compound]        S. mutans   14.84 mm
2  CC1(C)C=Cc2cc(C(=O)/C=C/c3ccc(O)cc3)c(O)cc2O1        S. mutans  25.235 mm
3  CC1(C)C=Cc2c(ccc(C(=O)/C=C/c3ccc(O)cc3)c2O)O1        S. mutans   24.81 mm

Annotate the compound "C=C[C@@](C)(/C=C/c1ccc(O)cc1)CCC=C(C)C" with its measured Semi-inhibition zone, Fluoride varnish + 10 mM substance.
26.705 mm

Return Semi-inhibition zone, Fluoride varnish + 10 mM substance for the following compound: "CC(C)=CCC[C@@H](C)c1ccc(C)c(O)c1"
25.725 mm

Respond only with Semi-inhibition zone, Fluoride varnish + 10 mM substance recorded for "CC(C)=CCc1cc(C(=O)/C=C/c2ccc(O)cc2)c(O)cc1O"
20.74 mm

----------
Tested on: S. mutans
METHOD: Agar diffusion test of fluoride varnish of hydrogenated rosin mixed with antibacterial substance, inhibition zone
Type: cell-based, Streptococcus mutans
CONDITION_LABEL: secondary test (Table 3); substance mixed 1:1 with fluoride varnish; positive control = ampicillin alone
# key: entry, value: Inhibition zone, Fluoride varnish + 10 mM substance
The answer is to be given in mm; state only the numeric part.

// solved cases for Inhibition zone, Fluoride varnish + 10 mM substance follow
> print(dat)
                                   molecule  unit.symbol  number
1  CC1(C)C=Cc2c(ccc(C(=O)/C=C/c3ccc(O)cc3)c2O)O1           mm    9.96
2    C=C[C@@](C)(/C=C/c1ccc(O)cc1)CCC=C(C)C           mm   10.10
3  CC1(C)C=Cc2cc(C(=O)/C=C/c3ccc(O)cc3)c(O)cc2O1           mm   10.48
4  CC(C)=CCc1cc(C(=O)/C=C/c2ccc(O)cc2)c(O)cc1O           mm   13.17
5          CC(C)=CCC[C@@H](C)c1ccc(C)c(O)c1           mm   10.28

Please look at this molecule and report its Inhibition zone, Fluoride varnish + 10 mM substance: CC1(C)S[C@@H]2[C@H](NC(=O)[C@H](N)c3ccccc3)C(=O)N2[C@H]1C(=O)O [Positive control group, ampicillin, reference compound]
14.84
